system_under_test: Apelin receptor (Homo sapiens) (UniProt P35414)
assay_summary: potency against CXCR6 with APJ panel – cell-based, beta-arrestin, DiscoveRx, uHTS hits, dose response (AID 624129); call rule not given here
cond: CXCR6 beta-arrestin (DiscoveRx) antagonist cell assay, APJ, dose range 1
Pick from class 1 (active), class 0 (inactive) when you respond.

O=C1C(Cc2ccccc2)Nc2ncnc(N3CCN(c4ccccc4)CC3)c2N1Cc1ccc(Br)cc1 (stereo not drawn) ... class 1

Query :: Test call for this compound, please: CCc1cc2c(=O)[nH]c(-c3ccccn3)nc2s1
Result :: class 1

----------
system_under_test: UniProt O00574
assay_summary: potency against CXCR6 with APJ panel – cell-based, beta-arrestin, DiscoveRx, uHTS hits, dose response (AID 624129)
cond: CXCR6 beta-arrestin (DiscoveRx) antagonist cell assay, CXCR6, run 2, dose range 1, at 79 µM (top of the series)
I'd appreciate it if you could supply inhibition values for the items below.
Give bare numbers, in %.

CC1(C)CC[C@]2(C(=O)n3ccnc3)CC[C@]3(C)[C@H](C(=O)C=C4[C@@]5(C)C=C(C#N)C(=O)C(C)(C)[C@@H]5CC[C@]43C)[C@@H]2C1 ... 105
C=C1CCN([C@@H](Cc2ccccc2)C(=O)NCCC(C)C)S(=O)(=O)c2ccccc21 ... 69.3

For each entry beneath this line, provide reported inhibition.
1. COC(=O)c1ccc(/C=C(\C#N)C(=O)NC(C)c2ccccc2)cc1 (stereo not given)
2. C=CCSC1=N/C(=C\c2cc(OCC)c(OC(C)=O)c([N+](=O)[O-])c2)C(=O)S1
3. Nc1ccccc1C#CC(=O)c1ccccc1
4. COc1ccc(-c2c(C(=O)c3ccccc3)[nH]c(N)c2C(=O)c2ccccc2)cc1OC
5. O=C(NNc1ccc([N+](=O)[O-])cc1[N+](=O)[O-])c1ccco1

Result ::
1. 112
2. 96.9
3. 111
4. 71.1
5. 86.8

For each entry beneath this line, provide reported inhibition.
1. COc1ccc(-c2nn(C)c(=O)c3ccccc23)cc1NC(=O)Cn1nc(C)c2ccccc2c1=O
2. O=C(NNC(=O)c1cc(-c2ccccc2)nn1-c1ccccc1)c1ccccc1
3. CCCC(=O)OCCNc1cc(SCc2ccco2)c2nonc2c1[N+](=O)[O-]
4. CC(=O)N1N=C(c2cccs2)CC1c1cccc([N+](=O)[O-])c1 (stereo not given)

Result ::
1: 72.1; 2: 75; 3: 103; 4: 73.7

----------
system_under_test: C-X-C chemokine receptor type 6 (Homo sapiens) (UniProt O00574)
Sequence (O00574 whole entry, looked up): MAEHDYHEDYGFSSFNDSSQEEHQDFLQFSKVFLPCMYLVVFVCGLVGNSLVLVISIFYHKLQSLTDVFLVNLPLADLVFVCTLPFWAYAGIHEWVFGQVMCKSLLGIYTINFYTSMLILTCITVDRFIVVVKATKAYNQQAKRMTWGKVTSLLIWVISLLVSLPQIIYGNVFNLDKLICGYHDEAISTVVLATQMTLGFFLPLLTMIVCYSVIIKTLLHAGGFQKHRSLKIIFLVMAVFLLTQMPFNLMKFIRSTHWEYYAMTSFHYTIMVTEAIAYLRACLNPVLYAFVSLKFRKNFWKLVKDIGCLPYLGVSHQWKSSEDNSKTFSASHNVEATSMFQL
assay_summary: potency against CXCR6 with APJ panel – cell-based, beta-arrestin, DiscoveRx, uHTS hits, dose response (AID 624129)
cond: CXCR6 beta-arrestin (DiscoveRx) antagonist cell assay, CXCR6, dose range 1
Calls of active or inactive are those of the source. No rule for the calls is given here.
Pick from YES = active, NO = inactive when you respond.

COc1ccc([N+](=O)[O-])c(S(=O)(=O)c2ccccc2)n1 ... NO
C/C(=N\NC(=O)Cc1ccc(Cl)cc1)c1ccccn1 ... YES
O=C1C=CC(=O)N1c1ccccc1N1C(=O)C=CC1=O ... NO

Query :: Test call for this molecule, please: Nc1cc(Cl)c2nonc2c1[N+](=O)[O-]
Result :: YES

Query :: Test call for this molecule, please: S=C(N/N=C/c1ccccc1)N1CCOCC1
Result :: YES

Query :: Test call for this molecule, please: Cc1ccccc1Oc1cc(-n2ncc(Cl)c(Cl)c2=O)ncn1
Result :: YES

Query :: Test call for this molecule, please: C=C1C(=O)[C@]23C[C@H]1CCC2[C@@]1(C)C(C[C@@H]3O)[C@](C)(C(=O)OC)CC[C@@H]1OC(C)=O (some centres not stated)
Result :: YES

Query :: Test call for this molecule, please: CCO[C@@H]1OC(C(=O)N2CCN(Cc3ccccc3)CC2)=C[C@H](c2ccc(Br)cc2)[C@H]1CCCO
Result :: NO

Query :: Test call for this molecule, please: CC(=NNc1nc2ccccc2s1)c1ncccn1
Result :: NO

Query :: Test call for this molecule, please: O=[N+]([O-])c1cc([N+](=O)[O-])c2cc3ccccc3nc2c1
Result :: NO

Query :: Test call for this molecule, please: C=C1C(=O)OC2C1CCC(C)=C1C(=O)C3OC3(C)C12 (configuration not stated)
Result :: YES

Query :: Test call for this molecule, please: C/C(=N/NC(=O)c1ccc(C(C)(C)C)cc1)c1ccccn1
Result :: YES

Query :: Test call for this molecule, please: Cc1cc(Cl)n2c(nc3cc(F)c(F)cc32)c1C#N
Result :: NO

Query :: Test call for this molecule, please: COC(=O)c1ccc2c(c1)C(C)(C)C(/C=C/c1ccc(OC)c(OC)c1OC)=[N+]2C
Result :: YES
